target: Factor X, P00742
Sequence (P00742 whole entry, looked up): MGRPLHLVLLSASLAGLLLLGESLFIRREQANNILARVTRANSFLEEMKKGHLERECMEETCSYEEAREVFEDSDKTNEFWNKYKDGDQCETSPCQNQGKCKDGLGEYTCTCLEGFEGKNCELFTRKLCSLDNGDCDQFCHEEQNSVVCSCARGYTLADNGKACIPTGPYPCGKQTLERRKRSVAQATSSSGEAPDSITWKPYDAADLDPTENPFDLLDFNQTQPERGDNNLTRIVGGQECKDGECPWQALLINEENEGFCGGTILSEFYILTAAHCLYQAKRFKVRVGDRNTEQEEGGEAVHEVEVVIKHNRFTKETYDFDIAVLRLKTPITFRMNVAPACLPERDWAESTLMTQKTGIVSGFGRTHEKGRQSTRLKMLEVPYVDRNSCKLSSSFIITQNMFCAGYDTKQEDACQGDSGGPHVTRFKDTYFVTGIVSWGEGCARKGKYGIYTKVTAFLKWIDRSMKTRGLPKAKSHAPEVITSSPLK
Please respond with reported kcat/KM for every item in the list.
Numbers only, in M⁻¹ s⁻¹.

Consider the worked cases shown below.
FIXa K247N/N249S/N260S/R318Y/R338E/R403E/E410N (protein) chain 1: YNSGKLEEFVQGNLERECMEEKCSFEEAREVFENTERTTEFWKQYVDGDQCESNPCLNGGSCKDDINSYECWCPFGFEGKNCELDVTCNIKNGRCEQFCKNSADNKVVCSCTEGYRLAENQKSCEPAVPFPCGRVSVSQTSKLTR chain 2: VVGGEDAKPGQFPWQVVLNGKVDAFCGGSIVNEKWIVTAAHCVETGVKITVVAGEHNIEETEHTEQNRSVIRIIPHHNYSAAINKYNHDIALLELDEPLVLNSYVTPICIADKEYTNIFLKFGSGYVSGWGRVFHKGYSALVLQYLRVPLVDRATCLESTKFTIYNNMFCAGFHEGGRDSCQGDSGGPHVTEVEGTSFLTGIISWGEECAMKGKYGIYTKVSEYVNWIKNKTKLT :: 6.7e+07
FIXa K228N/K247N/N249S/R318Y/R338E/R403E/E410N (protein) chain 1: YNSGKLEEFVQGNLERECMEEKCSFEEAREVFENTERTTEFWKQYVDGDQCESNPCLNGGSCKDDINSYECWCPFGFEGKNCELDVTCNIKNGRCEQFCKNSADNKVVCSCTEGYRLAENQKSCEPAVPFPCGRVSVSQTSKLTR chain 2: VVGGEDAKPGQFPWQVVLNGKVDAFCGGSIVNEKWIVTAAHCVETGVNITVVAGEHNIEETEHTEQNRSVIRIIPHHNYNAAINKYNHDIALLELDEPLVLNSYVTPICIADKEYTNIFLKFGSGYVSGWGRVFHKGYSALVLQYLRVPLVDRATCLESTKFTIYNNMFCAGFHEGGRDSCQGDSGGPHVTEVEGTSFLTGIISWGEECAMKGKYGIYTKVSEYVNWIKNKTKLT :: 1.6e+08
FIXa-K247N/N249S/R318Y/R338E/R403E (protein) chain 1: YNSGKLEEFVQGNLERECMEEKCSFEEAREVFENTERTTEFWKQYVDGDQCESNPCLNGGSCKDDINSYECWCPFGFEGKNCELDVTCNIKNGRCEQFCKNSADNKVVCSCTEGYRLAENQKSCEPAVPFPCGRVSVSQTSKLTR chain 2: VVGGEDAKPGQFPWQVVLNGKVDAFCGGSIVNEKWIVTAAHCVETGVKITVVAGEHNIEETEHTEQNRSVIRIIPHHNYNAAINKYNHDIALLELDEPLVLNSYVTPICIADKEYTNIFLKFGSGYVSGWGRVFHKGYSALVLQYLRVPLVDRATCLESTKFTIYNNMFCAGFHEGGRDSCQGDSGGPHVTEVEGTSFLTGIISWGEECAMKGKYGIYTKVSEYVNWIKEKTKLT :: 2.3e+08

Quick check: kcat/KM of FIXa R318Y/R338E/T343R/N346Y/R403E/E410N (protein) chain 1: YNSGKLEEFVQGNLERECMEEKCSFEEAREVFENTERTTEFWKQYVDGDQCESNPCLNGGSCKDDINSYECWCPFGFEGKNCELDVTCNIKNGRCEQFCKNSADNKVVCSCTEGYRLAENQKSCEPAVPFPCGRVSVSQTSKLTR chain 2: VVGGEDAKPGQFPWQVVLNGKVDAFCGGSIVNEKWIVTAAHCVETGVKITVVAGEHNIEETEHTEQKRNVIRIIPHHNYNAAINKYNHDIALLELDEPLVLNSYVTPICIADKEYTNIFLKFGSGYVSGWGRVFHKGYSALVLQYLRVPLVDRATCLESTKFRIYYNMFCAGFHEGGRDSCQGDSGGPHVTEVEGTSFLTGIISWGEECAMKGKYGIYTKVSEYVNWIKNKTKLT ? 3.1e+08

Reference source: patent US20210238260
